Test system: MLO-Y4 osteocytes
Assay: High-throughput drug screening of primary cilia length and incidence
Format: cell-based
Conditions: 10 μM, 16 hours, triplicate; normalized to vehicle control; standard deviation away from the population average
Experimental: MLO-Y4 osteocytes were maintained on collagen I-coated dishes in MEMα (Life_Technologies) supplemented with 5% fetal bovine serum (FBS), 5% calf serum (CS), and 1% penicillin/streptomycin (P/S) at 37° C. and 5% CO2. Osteocytes were then seeded onto 384-well collagen-coated plates for 72 hours before fixation. […] Each pair of nuclei and cilia images was first analyzed individually, then the entire population was examined to evaluate each compound's effect on cilia length and incidence. […]
met if Average Length SD Away is below 2 SD. not met if not; exact matches included in not met.

[
  {
    "compound": "CC[C@@]1(O)C(=O)OCc2c1cc1n(c2=O)Cc2cc3cc(O)ccc3nc2-1 [10-HYDROXYCAMPTOTHECIN]",
    "class": "not met"
  },
  {
    "compound": "O=C1Cc2c([nH]c3ccc(Br)cc23)-c2ccccc2N1",
    "class": "not met"
  },
  {
    "compound": "C[C@H](CCC(=O)O)[C@H]1CC[C@H]2[C@@H]3C(=O)C[C@@H]4CC(=O)CC[C@]4(C)[C@H]3CC(=O)[C@]12C [DEHYDROCHOLIC ACID]",
    "class": "met"
  },
  {
    "compound": "C=CCN1C[C@H](C)N([C@H](c2ccc(C(=O)N(CC)CC)cc2)c2cccc(O)c2)C[C@H]1C",
    "class": "met"
  }
]

* * *

tested on: MLO-Y4 osteocytes; assay: High-throughput drug screening of primary cilia length and incidence; format: cell-based; settings: 10 μM, 16 hours, triplicate; normalized to vehicle control; standard deviation away from the population average
Counter-ions that a name gives are not always drawn.

[
  {
    "compound": "O=c1[nH]c(=O)n([C@H]2C[C@H](O)[C@@H](CO)O2)cc1I",
    "Average Incidence SD Away (SD)": 1.798
  },
  {
    "compound": "O=c1c(-c2ccc(O)cc2)coc2cc(O)cc(O)c12",
    "Average Incidence SD Away (SD)": 1.524
  },
  {
    "compound": "Cc1cccc(Cc2c[nH]cn2)c1C [Detomidine HCl]",
    "Average Incidence SD Away (SD)": 1.922
  },
  {
    "compound": "CC(C)c1nc(N(C)S(C)(=O)=O)nc(-c2ccc(F)cc2)c1/C=C/[C@@H](O)C[C@@H](O)CC(=O)O",
    "Average Incidence SD Away (SD)": 1.644
  }
]

* * *

tested on: MLO-Y4 osteocytes; experiment: High-throughput drug screening of primary cilia length and incidence; format: cell-based; details: 10 μM, 16 hours, triplicate; normalized to vehicle control; standard deviation away from the population average
Where a name gives a salt, the structure may show the parent alone.
Listed next: entries and their corresponding Average Length SD Away.

[
  {
    "compound": "O=C1CN=C(c2cccc(Br)c2)c2oc3ccccc3c2N1",
    "tested-on": "MLO-Y4 osteocytes",
    "Average Length SD Away [SD]": 1.92
  },
  {
    "compound": "O=C1NC(=O)C(c2ccccc2[N+](=O)[O-])=C1Nc1ccc(O)c(Cl)c1",
    "tested-on": "MLO-Y4 osteocytes",
    "Average Length SD Away [SD]": 2.05
  },
  {
    "compound": "CNCCc1ccccn1 [BETAHISTINE HYDROCHLORIDE]",
    "tested-on": "MLO-Y4 osteocytes",
    "Average Length SD Away [SD]": 1.532
  },
  {
    "compound": "CC1C(=O)OC2C(O)C34C5CC(C(C)(C)C)C36C(OC(=O)C6O)OC4(C(=O)O5)C12O (stereo not drawn) [Ginkgolide B]",
    "tested-on": "MLO-Y4 osteocytes",
    "Average Length SD Away [SD]": 1.581
  },
  {
    "compound": "O=C(CCCCCCC(=O)Nc1ccccc1)NO",
    "tested-on": "MLO-Y4 osteocytes",
    "Average Length SD Away [SD]": 3.283
  },
  {
    "compound": "Cl.O=C1NCCc2[nH]c(-c3ccncc3)cc21 [PHA 767491 hydrochloride]",
    "tested-on": "MLO-Y4 osteocytes",
    "Average Length SD Away [SD]": 1.724
  },
  {
    "compound": "CCc1nc(N)nc(N)c1-c1ccc(Cl)cc1",
    "tested-on": "MLO-Y4 osteocytes",
    "Average Length SD Away [SD]": 3.194
  },
  {
    "compound": "O=C1Nc2ccccc2/C1=C1/Nc2ccccc2/C1=N\\O",
    "tested-on": "MLO-Y4 osteocytes",
    "Average Length SD Away [SD]": 2.475
  },
  {
    "compound": "Cc1cc(Cl)ccc1OCCCC(=O)NO",
    "tested-on": "MLO-Y4 osteocytes",
    "Average Length SD Away [SD]": 2.91
  },
  {
    "compound": "CC1=C(/C=C/C(C)=C/C=C/C(C)=C/C(=O)Nc2ccc(O)cc2)C(C)(C)CCC1 [Retinoic acid p-hydroxyanilide]",
    "tested-on": "MLO-Y4 osteocytes",
    "Average Length SD Away [SD]": 2.487
  },
  {
    "compound": "CN(CCOc1ccc(C[C@H](Nc2ccccc2C(=O)c2ccccc2)C(=O)O)cc1)c1ccccn1",
    "tested-on": "MLO-Y4 osteocytes",
    "Average Length SD Away [SD]": 1.65
  },
  {
    "compound": "C[C@@H](CN1CCC(n2c(=O)[nH]c3cc(Cl)ccc32)CC1)NC(=O)c1ccc2ccccc2c1",
    "tested-on": "MLO-Y4 osteocytes",
    "Average Length SD Away [SD]": 1.618
  },
  {
    "compound": "O=c1[nH]cc(F)c(=O)[nH]1",
    "tested-on": "MLO-Y4 osteocytes",
    "Average Length SD Away [SD]": 1.775
  },
  {
    "compound": "C[C@@H]1C[C@@H]([C@H](O)CC2CC(=O)NC(=O)C2)C(=O)[C@@H](C)C1 [CYCLOHEXIMIDE]",
    "tested-on": "MLO-Y4 osteocytes",
    "Average Length SD Away [SD]": 3.609
  },
  {
    "compound": "COc1cc2c(cc1O)CC[C@@H]1[C@@H]2CC[C@]2(C)[C@@H](O)CC[C@@H]12",
    "tested-on": "MLO-Y4 osteocytes",
    "Average Length SD Away [SD]": 1.62
  },
  {
    "compound": "N#C/C(=C\\c1ccc(O)c(O)c1)C(=O)Nc1ccccc1",
    "tested-on": "MLO-Y4 osteocytes",
    "Average Length SD Away [SD]": 1.575
  },
  {
    "compound": "CN(Cc1cnc2nc(N)nc(N)c2n1)c1ccc(C(=O)N[C@@H](CCC(=O)O)C(=O)O)cc1 [Methotrexate]",
    "tested-on": "MLO-Y4 osteocytes",
    "Average Length SD Away [SD]": 3.097
  },
  {
    "compound": "CC1=NCCc2c1[nH]c1cc(O)ccc21.Cl [HARMALOL HYDROCHLORIDE]",
    "tested-on": "MLO-Y4 osteocytes",
    "Average Length SD Away [SD]": 1.629
  },
  {
    "compound": "COC(=O)[C@H]1[C@H]2C[C@@H]3c4[nH]c5cc(OC)ccc5c4CCN3C[C@H]2C[C@@H](OC(=O)c2cc(OC)c(OC)c(OC)c2)[C@@H]1OC",
    "tested-on": "MLO-Y4 osteocytes",
    "Average Length SD Away [SD]": 1.972
  },
  {
    "compound": "CC(=O)O[C@H]1C[C@@H](OC(C)=O)C(C)(C)[C@@H]2C[C@@H](OC(C)=O)[C@@]3(C)C4=CC(=O)O[C@@H](c5ccoc5)[C@]4(C)CC[C@@H]3[C@@]12C",
    "tested-on": "MLO-Y4 osteocytes",
    "Average Length SD Away [SD]": 1.681
  },
  {
    "compound": "Br.C=CCN1CCc2cc(O)c(O)cc2C(c2ccccc2)C1 (stereo not drawn) [SKF 77434 hydrobromide]",
    "tested-on": "MLO-Y4 osteocytes",
    "Average Length SD Away [SD]": 1.527
  },
  {
    "compound": "COc1ccc(-c2cc3nccn3c(Nc3ncccc3C(N)=O)n2)cc1OC.Cl.O [BAY 61-3606 hydrochloride hydrate]",
    "tested-on": "MLO-Y4 osteocytes",
    "Average Length SD Away [SD]": 1.54
  },
  {
    "compound": "C#CCC(Cc1cnc2nc(N)nc(N)c2n1)c1ccc(C(=O)N[C@@H](CCC(=O)O)C(=O)O)cc1 (stereo partly drawn) [Pralatrexate(Folotyn), Pralatrexate]",
    "tested-on": "MLO-Y4 osteocytes",
    "Average Length SD Away [SD]": 2.105
  },
  {
    "compound": "COc1ccc(C(=O)c2c(C)n(CCN3CCOCC3)c3cc(I)ccc23)cc1",
    "tested-on": "MLO-Y4 osteocytes",
    "Average Length SD Away [SD]": 1.741
  }
]
